molecular target: WDR5 (Homo sapiens (Human)); experiment: Surface Plasmon Resonance (SPR) assay, KD and residence time; assay type: binding; conditions: surface plasmon resonance (SPR) assay; read-out: WDR5 binding affinity (KD)
readout: Kd (nM)

Recorded results for 5 compounds are shown here.
compound: C[C@@H]1CN(c2cc(F)c(-c3cnc(N4CCOCC4)nc3)cc2NC(=O)c2ccc(F)cc2)C[C@H](C)N1C [Example 107]
unit-tag: nM
measured: 137

compound: C[C@@H]1CN(c2cc(F)c(C3=CCN(C(=O)OC(C)(C)C)CC3)cc2NC(=O)c2cn(C)c(=O)cc2C(F)(F)F)C[C@H](C)N1C [Example 313]
unit-tag: nM
measured: 3.1

compound: C[C@@H]1CN(c2cc(F)c(-c3ccc(OCC4CC4)cc3)cc2NC(=O)c2c[nH]c(=O)cc2C(F)(F)F)C[C@H](C)N1C [Example 113]
unit-tag: nM
measured: 0.858

compound: C[C@@H]1CN(c2cc(F)c(-c3cnc(N(C)C)nc3)cc2NC(=O)c2c[nH]c(=O)cc2C(F)(F)F)C[C@H](C)N1C [Example 103]
unit-tag: nM
measured: 0.168

compound: C[C@@H]1CN(c2cc(F)c(-c3cncc(C(F)(F)F)c3)cc2NC(=O)c2cn(C)c(=O)cc2C(F)(F)F)C[C@H](C)N1C [Example 180]
unit-tag: nM
measured: 35.4

P: C[C@@H]1CN(c2cc(F)c(-c3cnc(N4CCCN(C)CC4)nc3)cc2NC(=O)c2ccc(F)cc2C(F)(F)F)C[C@H](C)N1C [Example 203]
Q: COc1ccc(C(C)N2CC=C(c3cc(NC(=O)c4c[nH]c(=O)cc4C(F)(F)F)c(N4C[C@@H](C)N(C)[C@@H](C)C4)cc3F)CC2)cc1 (stereo partly shown) [Example 232]
Input: I need your help: which of the pair P , Q has higher Kd? Refer to your chosen entry by its label in the reply.
Output: Q

###

target: WDR5 (Homo sapiens (Human)); test: Surface Plasmon Resonance (SPR) assay, KD and residence time; type: binding; details: surface plasmon resonance (SPR) assay; read-out: WDR5 binding affinity (KD)
readout: Kd (nM)

compound: CCN(C)[C@@H]1CCN(c2cc(F)c(-c3cnc(N4CCOCC4)nc3)cc2NC(=O)c2c[nH]c(=O)cc2C(F)(F)F)C1 [Example 345]
readout: Kd
measured: 1.2

compound: C[C@@H]1CN(c2cc(F)c(-c3cnc(N(C)C)nc3)cc2NC(=O)c2ccc(F)cc2C(F)(F)F)C[C@H](C)N1C [Example 380]
readout: Kd
measured: 1.7

A: CCn1cc(C(=O)Nc2cc(-c3cnc(N4CCOCC4)nc3)c(F)cc2N2C[C@@H](C)N(C)[C@@H](C)C2)c(C(F)(F)F)cc1=O [Example 315]
B: C[C@@H]1CN(c2cc(F)c(-c3cnc(N4CCOCC4)nc3)cc2NC(=O)c2cccc(F)c2F)C[C@H](C)N1C [Example 229]
C: C[C@@H]1CN(c2cc(F)c(-c3ccc(N4CCOCC4)c(F)c3)cc2NC(=O)c2c[nH]c(=O)cc2C(F)(F)F)C[C@@H](C)N1C (stereo in doubt) [Example 357]
Input: Ordering criterion: Kd; begin with the maximum. To answer, arrange all of the labels according to the requested order.
Output: C, B, A
(C: 133 nM, B: 83 nM, A: 8.49 nM)

###

biological target: WDR5 (Homo sapiens (Human), UniProt P61964); test: Surface Plasmon Resonance (SPR) assay, KD and residence time; format: binding; settings: surface plasmon resonance (SPR); read-out: WDR5 binding affinity (KD)
readout: Kd (nM)

compound: C[C@@H]1CN(c2cc(F)c(-c3ccn(C)c(=O)c3)cc2NC(=O)c2c[nH]c(=O)cc2C(F)(F)F)C[C@H](C)N1C [Example 567]
measured: 1.18

I: CC1CN(c2cc(F)c(C3=CCN(c4ncc(C#N)s4)CC3)cc2NC(=O)c2c[nH]c(=O)cc2C(F)F)CCN1C (stereo in doubt) [Example 686]
II: CC(C)OC(=O)N1CC=C(c2cc(NC(=O)c3c[nH]c(=O)cc3C(F)(F)F)c(N3C[C@@H](C)N(C)[C@@H](C)C3)cc2F)CC1 [Example 602]
Input: I need your help: which of the pair I , II has higher Kd? Refer to your chosen entry by its label in the reply.
Output: I

###

molecular target: WDR5 (Homo sapiens (Human)); test: Surface Plasmon Resonance (SPR) assay, KD and residence time; type: binding; conditions: surface plasmon resonance (SPR); read-out: WDR5 binding affinity (KD)
pKd: −log10 of the molar value.
readout: pKd

Recorded results for 2 compounds are shown here.
compound: C[C@@H]1CN(c2cc(F)c(-c3csc(C(=O)N(C)CC4CC4)n3)cc2NC(=O)c2c[nH]c(=O)cc2C(F)(F)F)C[C@H](C)N1C [Example 532]
target-or-system: WDR5 (Homo sapiens (Human))
measured: 9.16

compound: C[C@@H]1CN(c2cc(F)c(C3=CCN(c4ncc(C=O)cn4)C3)cc2NC(=O)c2c[nH]c(=O)cc2C(F)(F)F)C[C@H](C)N1C [Example 444]
target-or-system: WDR5 (Homo sapiens (Human))
measured: 8.53

I: C[C@@H]1CN(c2cc(F)c(C3=CCN(c4ccc(C5CC5)nn4)CC3)cc2NC(=O)c2c[nH]c(=O)cc2C(F)(F)F)C[C@H](C)N1C [Example 503]
II: CNC1CCN(c2cc(F)c(-c3cnc(N4CCOCC4)nc3)cc2NC(=O)c2c[nH]c(=O)cc2C(F)(F)F)CC1 [Example 541]
Input: Compare pKd: is it lower for I or for II ? Refer to your chosen entry by its label in the reply.
Output: II
(II: 8.13, I: 8.61)

1: CC1CN(c2cc(F)c(-c3ccnc(N4CCOCC4)n3)cc2NC(=O)c2cn(C)c(=O)cc2C(F)F)CCN1C (stereo in doubt) [Example 664]
2: C[C@@H]1CN(c2cc(F)c(C3=CCCN(c4ncco4)C3)cc2NC(=O)c2c[nH]c(=O)cc2C(F)(F)F)C[C@H](C)N1C [Example 643]
3: C[C@@H]1CN(c2cc(F)c(-c3ccc(C(N)=O)c(F)c3)cc2NC(=O)c2cn(C)c(=O)cc2C(F)F)C[C@H](C)N1C [Example 592]
Input: Put these in order: smallest pKd first, largest last. To answer, arrange all of the labels according to the requested order.
Output: 3, 1, 2
(3: 8.17, 1: 8.57, 2: 8.90)

A: C[C@@H]1CN(c2cc(F)c(-c3cnc(N4CCNCC4)nc3)cc2NC(=O)c2ccc(F)cc2C(F)(F)F)C[C@H](C)N1C [Example 546]
B: C[C@@H]1CN(c2cc(F)c(-c3ccc(=O)n(C)c3)cc2NC(=O)c2c[nH]c(=O)cc2C(F)(F)F)C[C@H](C)N1C [Example 568]
C: CC1CN(c2cc(F)c(-c3ccnc(N4CCOCC4)n3)cc2NC(=O)c2c[nH]c(=O)cc2C(F)F)CCN1C (stereo in doubt) [Example 720]
Input: Put these in order: smallest pKd first, largest last. To answer, arrange all of the labels according to the requested order.
Output: B, A, C

P: C[C@H]1CN(c2cc(F)c(C3=CCN(C(=O)N4CCCC4)C3)cc2NC(=O)c2c[nH]c(=O)cc2C(F)F)CCN1C [Example 629]
Q: C[C@@H]1CN(c2ccc(-c3cc(NC(=O)c4cn(C)c(=O)cc4C(F)F)c(N4C[C@@H](C)N(C)[C@@H](C)C4)cc3F)cn2)CCO1 [Example 542]
Input: I need your help: which of the pair P , Q has higher pKd? Refer to your chosen entry by its label in the reply.
Output: P
(P: 8.65, Q: 8.26)

###

biological target: WDR5 (Homo sapiens (Human), UniProt P61964); assay: Surface Plasmon Resonance (SPR) assay, KD and residence time; type: binding; settings: surface plasmon resonance (SPR); read-out: WDR5 binding affinity (KD)
readout: Kd (pM)

compound: C[C@@H]1CN(c2ccc(-c3cc(NC(=O)c4c[nH]c(=O)cc4C(F)F)c(N4C[C@@H](C)N(C)[C@@H](C)C4)cc3F)cn2)C[C@H](C)O1 [Example 511]
unit-tag: pM
Kd: 779

I: CC1CN(c2cc(F)c(-c3ccnc(N4CCOCC4)n3)cc2NC(=O)c2ccc(F)cc2C(F)(F)F)CCN1C (stereo in doubt) [Example 614]
II: C[C@@H]1CN(c2nccc(-c3cc(NC(=O)c4cn(C)c(=O)cc4C(F)(F)F)c(N4C[C@@H](C)N(C)[C@@H](C)C4)cc3F)n2)C[C@H](C)O1 [Example 743]
III: C[C@@H]1CN(c2cc(F)c(C3=CCCN(C(=O)OC4(C)CCC4)C3)cc2NC(=O)c2c[nH]c(=O)cc2C(F)(F)F)C[C@H](C)N1C [Example 471]
Input: Put these in order: smallest Kd first, largest last. To answer, arrange all of the labels according to the requested order.
Output: III, I, II

Hey, just so you know, these numbers are from patent US11319299B2.
